The variants listed here are annotated with their protein stability index.
B1: ZNF649 (parent)
chain: LTEHKRIHTGKKPHVCSLCGKAFY

Variants of: B1
assay-explanation: protein stability index of a GFP-peptide fusion (GPS, HEK-293T) (PSI 1-6); higher = more stable;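 also: lentivirally expressed fusions sorted by FACS into six bins by GFP to DsRed ratio, PSI derived from sequencing read proportions per bin multiplied by bin number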
experimental-conditions: c terminus: a fixed tail appended
Respond using a number only.

Some solved entries appear below for comparison.
IN: Give reported protein stability index value for T2H
OUT: 2.46

IN: Give reported protein stability index value for T2L
OUT: 2.09

IN: Give reported protein stability index value for F23E
OUT: 3.69

IN: Give reported protein stability index value for L18H
OUT: 3.13

IN: Give reported protein stability index value for K11S
OUT: 2.43

IN: Give reported protein stability index value for I7N
OUT: 2.85

---
IN: Give reported protein stability index value for H14W
OUT: 3.52

IN: Give reported protein stability index value for S17F
OUT: 2.2

IN: Give reported protein stability index value for C19H
OUT: 3.06

IN: Give reported protein stability index value for G10F
OUT: 3.73

IN: Give reported protein stability index value for H8I
OUT: 2.17

IN: Give reported protein stability index value for I7W
OUT: 2.5

The reported numbers originate from the supplement of paper PMC10567573.
